# ASSAYED SYSTEM: Cytochrome P450 2C19 (Homo sapiens)
# Sequence (P33261 whole entry): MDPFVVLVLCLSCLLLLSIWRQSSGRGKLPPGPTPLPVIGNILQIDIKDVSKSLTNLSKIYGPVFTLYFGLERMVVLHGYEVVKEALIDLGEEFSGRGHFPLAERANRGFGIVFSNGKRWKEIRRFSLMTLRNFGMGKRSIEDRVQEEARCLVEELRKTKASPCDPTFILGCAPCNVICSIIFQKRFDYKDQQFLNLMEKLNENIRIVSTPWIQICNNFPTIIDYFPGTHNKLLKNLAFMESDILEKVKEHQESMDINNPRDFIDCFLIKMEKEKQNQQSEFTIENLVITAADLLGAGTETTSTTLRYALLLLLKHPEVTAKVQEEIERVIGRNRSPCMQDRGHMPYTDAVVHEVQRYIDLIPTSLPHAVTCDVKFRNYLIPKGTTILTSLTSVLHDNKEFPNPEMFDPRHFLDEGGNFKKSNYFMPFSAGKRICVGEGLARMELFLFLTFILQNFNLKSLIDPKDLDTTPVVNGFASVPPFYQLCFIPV
# ASSAY TEXT: Cytochrome panel assay with activity outcomes. Panel member name: p450-cyp2c19 Compounds with AC50 equal or less than 10 uM are considered active
# Format: functional
# CONDITIONS USED: read-out: AC50
Measured AC50 by item
MEASURED ATTRIBUTE: AC50

COMPOUND: CCc1ccc(N2C(=O)/C(=C/c3cccs3)N(CC(=O)OC)C2=S)cc1
OBSERVED MEASUREMENT: 3.98 µM (inconclusive)

COMPOUND: CCOc1cc2c(C)cc(=O)oc2cc1Cl
OBSERVED MEASUREMENT: 14.1 µM (inconclusive)

COMPOUND: CCC(C)n1nnc2c(=O)oc3ccccc3c21 (stereo not given)
OBSERVED MEASUREMENT: 8.91 µM (inconclusive)

COMPOUND: CCOC(=O)N1CCN(C(=O)c2ccc(Cl)c(S(=O)(=O)N3CCOCC3)c2)CC1
OBSERVED MEASUREMENT: 39.8 µM (inconclusive)

COMPOUND: Cc1ccc(-n2c3c(c(=O)[nH]c2=O)C(C(F)(F)F)(C(F)(F)F)NC(=O)N3)cc1
OBSERVED MEASUREMENT: 39.8 µM (inconclusive)

COMPOUND: COC(=O)[C@@]1(Cc2ccc(OC)cc2)[C@H]2c3cc(C(=O)N(C)C)n(CCN4CNCC4=O)c3C[C@H]2CN1C(=O)c1ccccc1
OBSERVED MEASUREMENT: 15.8 µM (inconclusive)

COMPOUND: COCCn1nc2cc(C(=O)NCc3cc(C(F)(F)F)cc(C(F)(F)F)c3)ccc2c1OC
OBSERVED MEASUREMENT: 3.16 µM (inconclusive)

COMPOUND: Cc1ccccc1-c1nc(N2CCOCC2)c2ccccc2n1
OBSERVED MEASUREMENT: 39.8 µM (inconclusive)

COMPOUND: CCOc1ccc(C(C)=O)cc1N1C(=O)C2C(C1=O)C1C=CC2C12CC2 (stereo not given)
OBSERVED MEASUREMENT: 17.8 µM (inconclusive)

COMPOUND: Cc1c(Cl)cccc1NC(=O)CC1NCCNC1=O (stereo not given)
OBSERVED MEASUREMENT: 39.8 µM (inconclusive)
